# system: hNaV1.7 (Homo sapiens (Human), UniProt Q15858)
# Sequence (Q15858 whole entry, looked up): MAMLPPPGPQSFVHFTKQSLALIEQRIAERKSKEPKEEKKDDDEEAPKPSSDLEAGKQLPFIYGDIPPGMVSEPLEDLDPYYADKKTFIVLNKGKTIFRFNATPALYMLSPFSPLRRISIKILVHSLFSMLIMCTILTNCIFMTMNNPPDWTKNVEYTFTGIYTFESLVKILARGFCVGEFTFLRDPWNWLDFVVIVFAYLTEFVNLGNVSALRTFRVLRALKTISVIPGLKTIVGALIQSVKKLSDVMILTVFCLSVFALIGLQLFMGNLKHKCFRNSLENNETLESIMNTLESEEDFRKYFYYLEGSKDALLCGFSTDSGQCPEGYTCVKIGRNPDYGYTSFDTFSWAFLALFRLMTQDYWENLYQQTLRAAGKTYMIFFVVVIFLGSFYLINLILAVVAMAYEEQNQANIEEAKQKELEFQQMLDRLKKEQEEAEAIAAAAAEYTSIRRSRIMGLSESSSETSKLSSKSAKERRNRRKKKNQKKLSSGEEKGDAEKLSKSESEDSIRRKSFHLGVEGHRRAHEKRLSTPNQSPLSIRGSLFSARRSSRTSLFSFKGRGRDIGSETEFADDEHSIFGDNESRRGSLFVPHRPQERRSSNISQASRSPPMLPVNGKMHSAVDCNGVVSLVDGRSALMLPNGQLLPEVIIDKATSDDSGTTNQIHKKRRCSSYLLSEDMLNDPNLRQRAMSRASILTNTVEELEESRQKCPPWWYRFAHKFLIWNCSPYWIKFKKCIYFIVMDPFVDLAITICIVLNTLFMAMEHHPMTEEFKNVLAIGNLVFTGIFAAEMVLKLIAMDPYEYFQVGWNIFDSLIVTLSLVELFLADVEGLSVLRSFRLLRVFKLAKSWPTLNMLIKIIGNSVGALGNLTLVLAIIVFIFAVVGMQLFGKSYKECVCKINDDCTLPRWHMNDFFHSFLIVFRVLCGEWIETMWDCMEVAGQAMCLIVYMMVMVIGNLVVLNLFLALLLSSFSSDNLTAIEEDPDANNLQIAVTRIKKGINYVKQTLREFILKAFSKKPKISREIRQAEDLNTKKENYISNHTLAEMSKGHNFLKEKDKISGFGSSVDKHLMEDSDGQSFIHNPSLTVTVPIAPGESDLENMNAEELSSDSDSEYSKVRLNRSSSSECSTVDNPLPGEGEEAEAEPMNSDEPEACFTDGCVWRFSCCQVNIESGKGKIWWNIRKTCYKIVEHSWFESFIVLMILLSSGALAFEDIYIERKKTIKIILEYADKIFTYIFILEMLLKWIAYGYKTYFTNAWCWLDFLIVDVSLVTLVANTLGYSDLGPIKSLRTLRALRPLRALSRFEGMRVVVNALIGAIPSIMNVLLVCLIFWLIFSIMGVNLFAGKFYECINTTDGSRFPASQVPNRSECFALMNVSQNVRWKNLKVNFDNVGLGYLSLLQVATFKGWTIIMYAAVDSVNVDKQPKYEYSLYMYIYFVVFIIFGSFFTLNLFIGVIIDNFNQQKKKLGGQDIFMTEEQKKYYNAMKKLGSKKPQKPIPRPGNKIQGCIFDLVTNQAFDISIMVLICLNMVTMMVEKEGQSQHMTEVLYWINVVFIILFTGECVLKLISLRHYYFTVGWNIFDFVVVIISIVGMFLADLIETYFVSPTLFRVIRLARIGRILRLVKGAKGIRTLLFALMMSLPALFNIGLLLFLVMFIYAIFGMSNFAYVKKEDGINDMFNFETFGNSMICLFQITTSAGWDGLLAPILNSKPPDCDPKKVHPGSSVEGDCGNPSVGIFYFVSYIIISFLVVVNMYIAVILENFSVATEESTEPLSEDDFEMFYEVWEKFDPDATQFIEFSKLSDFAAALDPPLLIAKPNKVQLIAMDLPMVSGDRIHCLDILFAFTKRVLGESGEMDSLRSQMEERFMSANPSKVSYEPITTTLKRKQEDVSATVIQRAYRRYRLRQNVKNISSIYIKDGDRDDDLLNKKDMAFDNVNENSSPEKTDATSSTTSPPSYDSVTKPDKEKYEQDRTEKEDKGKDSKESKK
# Sequence (Q07699 whole entry partner, looked up): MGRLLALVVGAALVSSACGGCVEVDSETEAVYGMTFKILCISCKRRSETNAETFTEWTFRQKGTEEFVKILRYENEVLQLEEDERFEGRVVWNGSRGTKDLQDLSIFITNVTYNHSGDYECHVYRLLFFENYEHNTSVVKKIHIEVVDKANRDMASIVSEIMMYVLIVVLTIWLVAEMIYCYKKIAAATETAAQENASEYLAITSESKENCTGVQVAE
# method: Competitive binding of tritiated compound to membranes from cells expressing hNav1.7 and the β1 subunit
# run_parameters: 100 pM [3H]compound, 18 h, room temperature; read-out: NaV1.7 395 Membrane Binding IC50
# Procedure: Tritiated compound binding to membranes isolated from cells that heterologously express hNav1.7 and the β1 subunit Preparation of membranes containing recombinantly expressed sodium channels: Frozen recombinant cell pellets were thawed on ice and diluted to 4 times the cell pellet weight with ice cold 50 mM Tris HCl, pH 7.4 buffer. […] Protein concentrations were determined by Bradford Assay and the membranes were stored at −80° C. […]
Assign pIC50 to each entry below.
Just so you know, pIC50 here is -log10 of the concentration in molar units; reply with that number alone.

*Q* Report pIC50 for CC(C)COc1ncc(Oc2cc(F)c(C(=O)NS(=O)(=O)N(C)C)cc2Cl)cc1C(F)(F)F
*A* 7.15

*Q* Report pIC50 for CNS(=O)(=O)NC(=O)c1cc(Cl)c(COc2ccc(Cl)c(C(F)(F)F)c2)cc1F
*A* 7.46

*Q* Report pIC50 for CN(C)S(=O)(=O)NC(=O)c1cc(Cl)c(Oc2cccc3ncccc23)cc1F
*A* 4.70

*Q* Report pIC50 for C=Cc1cc(C(=O)NS(=O)(=O)N2CCC2)c(F)cc1Oc1cnc(OCC(F)(F)F)c(Cl)c1
*A* 7.96

*Q* Report pIC50 for CN(C)S(=O)(=O)NC(=O)c1cc(Cl)c(Oc2ccc3ccccc3c2)cc1F
*A* 5.39

*Q* Report pIC50 for CNS(=O)(=O)NC(=O)c1cc(Cl)c(Oc2cnc(OCC(C)C)c(Cl)c2)cc1F
*A* 8.07

*Q* Report pIC50 for COc1ncccc1-c1cc(C(=O)NS(=O)(=O)N2CCC2)ccc1Oc1cnc(OC(C)C)c(Cl)c1
*A* 7.96

*Q* Report pIC50 for NS(=O)(=O)NC(=O)c1cc(Cl)c(Oc2ccc(OC(F)(F)F)c(Cl)c2)cc1F
*A* 5.70
